Tested on: glycogen synthase kinase-3 (GSK3A per assay name; protocol says GSK3B)
ASSAY_SUMMARY: GSK3 binders on small-molecule microarrays, primary screen, biochemical, small-molecule microarray, 635 nm fluorescence, GSK3A (AID 1103); further: the record names both GSK3A and GSK3B
ASSAY_CONTEXT: small-molecule microarray binding, fluorescence 635 nm; higher = more signal
Here, each record is paired with measured composite z-score data.

As a guide, the following entries are already answered.
>>> endpoint_result("COc1ccc([Si](C)(C)[C@@H]2[C@@H](CCn3cc([C@H](O)c4ccccc4)nn3)O[C@]3(C(=O)N(Cc4cccc(N5C(=O)c6cccc7cccc5c67)c4)c4ccccc43)[C@H]2C)cc1")
-0.83
>>> endpoint_result("COc1cc(C(O)C2C=CC3C(=O)N(Cc4ccccc4)C(=O)C3N2n2cnnc2)cc(OC)c1OC (stereo unspecified)")
0.389
>>> endpoint_result("CC1CC/C=C\\[C@H]2OC34C=CCN(CCN5CCOCC5)C(=O)[C@H]3N(C(C)CO)C(=O)[C@@H]4C2C(=O)O1 (stereo partly specified)")
-0.42
>>> endpoint_result("[N-]=[N+]=NCc1ccccc1[C@@H]1OC(c2ccc(OCCCO)cc2)=N[C@]1(Cc1ccccc1N=[N+]=[N-])C(=O)NCCN1CCOCC1")
1.34

Problem: Requested read-out composite z-score, target or system glycogen synthase kinase-3 (GSK3A per assay name; protocol says GSK3B), entry CCOC(=O)C1=C[C@@H](C(C)(C)C)N(S(=O)(=O)c2ccc(C)cc2)[C@H]1c1ccc(C)cc1
Solution: 0.995

Problem: Requested read-out composite z-score, target or system glycogen synthase kinase-3 (GSK3A per assay name; protocol says GSK3B), entry CCN(CC)c1ccc(N2CC=CC34O[C@@H]5/C=C\CCC(C)OC(=O)C5[C@H]3C(=O)N(C(C)CO)[C@@H]4C2=O)cc1 (stereo partly specified)
Solution: -0.189

* * *

TARGET_SYSTEM: Fibroblast growth factor 10 (Homo sapiens)
ASSAY_SUMMARY: FGF10 binders on small-molecule microarrays, primary screen, biochemical, small-molecule microarray, 635 nm fluorescence (AID 1102)
ASSAY_CONTEXT: FGF10 binding, fluorescence 635 nm, higher = more signal
Here, each record is paired with measured composite z-score data.
Just the number, please.

As a guide, the following entries are already answered.
>>> endpoint_result("C=C(COC)C(=O)CC[C@@H](OC(=O)c1cccnc1)c1ccccc1OCCO")
0.694
>>> endpoint_result("CC(C)CNC(=O)[C@@H]1c2ccccc2C(=O)N(C2CCCCC2)[C@H]1c1ccc(CO)cc1")
-0.0953
>>> endpoint_result("C=C(/C(=C/C[C@H](OC(=O)c1ccncc1)c1cccc(OCCO)c1)c1cnc2ccccc2c1)C(C)C")
1.47
>>> endpoint_result("COCCCNC(=O)[C@@]1(c2ccc([N+](=O)[O-])cc2)CC(=O)N(CC23CC4CC(CC(C4)C2)C3)[C@@H]1c1ccc(CO)cc1I")
-0.0432

Attention now turns to another entry.
Problem: // returns reported composite z-score for input CCN(CC)c1ccc(N2CC=CC34O[C@@H]5C=CCCOC(=O)C5[C@H]3C(=O)N(CCO)[C@@H]4C2=O)cc1 (stereo not given in full)
Solution: -0.504

* * *

ASSAY_SUMMARY: PSAC antagonists in infected red cells, primary screen, cell-based, P. falciparum Indochina, OD700, 1 h (AID 1154)
ASSAY_CONTEXT: P. falciparum Indochina infected RBC osmotic lysis, higher = more signal, called active from +8 up or from −8 down
READOUT_NAME: z-score
Just the number, please.

>>> endpoint_result("O=C1C[C@@](C(=O)NCC(F)(F)F)(c2ccc([N+](=O)[O-])cc2)[C@@H](c2ccc(CO)cc2)N1CC12CC3CC(CC(C3)C1)C2")
5.86
>>> endpoint_result("CC(C)[C@H]1NC(=O)[C@@]23C(=O)N[C@@H](Cc4ccccc4)C2[C@H](C)[C@@]2(C)O[C@H]2C3/C=C/C/C=C\\CNC(=O)[C@H](Cc2ccccc2)NC1=O (stereo partly drawn)")
1.48

Attention now turns to another entry.
Problem: // returns reported z-score for input COCCCNC(=O)[C@@]1(c2ccc([N+](=O)[O-])cc2)CC(=O)N(C(C)C)[C@@H]1c1ccc(CO)cc1
Solution: 0.481
